System: MDA-MB-435 melanoma
Test: NCI-60 one-dose screen, 48 h (100 = growth as untreated, 0 = no growth, -100 = all killed)
Settings: 10 µM unless noted
The panel holds about 83,000 compounds, 20% with a hit somewhere; the sample as a whole holds those more often.
# if measured growth < 40%: Satisfied  # else: Not satisfied

Prompt line: Lab note: confirm whether the reported growth for this compound is below 40%, equality not counting. compound: COc1cc2nc(-c3ccc(C(F)(F)F)cc3)cc(OCCCN3CCCCC3)c2cc1OC
Response line: Satisfied

Prompt line: Lab note: confirm whether the reported growth for this compound is below 40%, equality not counting. compound: CCOc1cc(CNc2ccc(N3CCOCC3)c(C(=O)O)c2)ccc1OC
Response line: Not satisfied

Prompt line: Lab note: confirm whether the reported growth for this compound is below 40%, equality not counting. compound: CC1(C)[C@H](O)CC[C@]2(C)[C@@H]1CC[C@@]13C[C@@H](CC[C@H]12)[C@@](O)(CO)C3
Response line: Not satisfied

Prompt line: Lab note: confirm whether the reported growth for this compound is below 40%, equality not counting. compound: CCN1C(=O)N(CC)C2NC(SC)=NC21 (stereo not drawn)
Response line: Not satisfied

Prompt line: Lab note: confirm whether the reported growth for this compound is below 40%, equality not counting. compound: O=C(Nc1nc2ccc(S(=O)(=O)Nc3ccc(C4(C(F)(F)F)CC4)cc3)cc2[nH]1)c1cnccn1
Response line: Satisfied

Prompt line: Lab note: confirm whether the reported growth for this compound is below 40%, equality not counting. compound: CCCCCCNC(=O)Oc1ccc(/C(=C(/CC)Cc2ccccc2)c2ccc(OCCN(CC)CC)cc2)cc1
Response line: Not satisfied

Prompt line: Lab note: confirm whether the reported growth for this compound is below 40%, equality not counting. compound: Cc1ccc(-c2c(Br)c(OC(=O)CO[C@@H]3C[C@H](C)CC[C@H]3C(C)C)c(-c3ccc(C)cc3C)c(Br)c2OC(=O)CO[C@H]2C[C@@H](C)CC[C@@H]2C(C)C)c(C)c1
Response line: Not satisfied

Prompt line: Lab note: confirm whether the reported growth for this compound is below 40%, equality not counting. compound: CCOC(=O)Oc1c(OC)cc(C(=O)O[C@@H]2C[C@@H]3CN4CCc5c([nH]c6cc(OC)ccc56)[C@H]4C[C@@H]3[C@H](C(=O)OC)[C@H]2OC)cc1OC
Response line: Not satisfied

Prompt line: Lab note: confirm whether the reported growth for this compound is below 40%, equality not counting. compound: c1ccc(CCSc2ncnc3nc[nH]c23)cc1
Response line: Not satisfied

Prompt line: Lab note: confirm whether the reported growth for this compound is below 40%, equality not counting. compound: Cc1c(C2=CCCCC2)c2ccccn2c1C(=O)c1cccc(S(=O)(=O)N2CCOCC2)c1
Response line: Not satisfied

Prompt line: Lab note: confirm whether the reported growth for this compound is below 40%, equality not counting. compound: C=Cc1cc[n+](CCCCCCCCCCCC)cc1
Response line: Not satisfied

Prompt line: Lab note: confirm whether the reported growth for this compound is below 40%, equality not counting. compound: N#C/C(=C\c1ccc(Br)cc1)n1nnc2cccc(F)c21
Response line: Satisfied

Prompt line: Lab note: confirm whether the reported growth for this compound is below 40%, equality not counting. compound: c1ccc(Cn2nc3c(c2-c2ccccc2)-c2oncc2CC3)cc1
Response line: Not satisfied

Prompt line: Lab note: confirm whether the reported growth for this compound is below 40%, equality not counting. compound: COc1cc(-c2nc3sccn3c2-c2ccnc(NCCNS(=O)(=O)c3ccc(F)cc3)n2)ccc1F
Response line: Satisfied

Prompt line: Lab note: confirm whether the reported growth for this compound is below 40%, equality not counting. compound: Fc1ccc(C2CC(c3cccc(Nc4ccncc4)c3)=NN2c2ccc(Cl)cc2)cc1 (stereo not drawn)
Response line: Satisfied

Prompt line: Lab note: confirm whether the reported growth for this compound is below 40%, equality not counting. compound: COc1ccccc1/C=N/NC1=NC2C(N1)N(C)C(=O)N2C (stereo not drawn)
Response line: Not satisfied

Prompt line: Lab note: confirm whether the reported growth for this compound is below 40%, equality not counting. compound: COc1cc(COC(=O)CCCCC[P+](c2ccccc2)(c2ccccc2)c2ccccc2)c(OC)c2c1OCO2
Response line: Not satisfied

Prompt line: Lab note: confirm whether the reported growth for this compound is below 40%, equality not counting. compound: CCCCCCCCCCCCCCCC(=O)OC[C@@]1(O)C[C@@]23CC[C@@H]4C(C)(C)[C@H](O)CC[C@@]4(C)[C@@H]2CC[C@H]1C3
Response line: Not satisfied

Prompt line: Lab note: confirm whether the reported growth for this compound is below 40%, equality not counting. compound: Cc1cc(Nc2cccc(C(F)(F)F)c2)n2c(nc3ccccc32)c1C#N
Response line: Not satisfied

Prompt line: Lab note: confirm whether the reported growth for this compound is below 40%, equality not counting. compound: CC(=O)[C@@H]1CC[C@]2(C(=O)n3ccnc3)CC[C@]3(C)[C@H](CC[C@@H]4[C@@]5(C)Cc6c([nH]c7ccccc67)C(C)(C)[C@@H]5CC[C@]43C)[C@@H]12
Response line: Not satisfied

Prompt line: Lab note: confirm whether the reported growth for this compound is below 40%, equality not counting. compound: Nc1ncc(C#Cc2cncc(NC(=O)c3cccc(C(F)(F)F)c3)c2)c2cccnc12
Response line: Satisfied

Prompt line: Lab note: confirm whether the reported growth for this compound is below 40%, equality not counting. compound: COc1ccccc1-c1c(-c2ccc(Cl)cc2)c2cc3c(cc2[nH]c1=O)OCCO3
Response line: Not satisfied

Prompt line: Lab note: confirm whether the reported growth for this compound is below 40%, equality not counting. compound: CC(C)[N+](C)(CCOC(COc1ccccc1)COc1ccccc1)C(C)C
Response line: Not satisfied

Prompt line: Lab note: confirm whether the reported growth for this compound is below 40%, equality not counting. compound: c1ccc(-c2nn(-c3ccccc3)[n+](-c3cccc4ccccc34)n2)cc1
Response line: Satisfied

Prompt line: Lab note: confirm whether the reported growth for this compound is below 40%, equality not counting. compound: Cc1c([N+](=O)[O-])cc(C(C)(C)C)cc1[N+](=O)[O-]
Response line: Not satisfied

Prompt line: Lab note: confirm whether the reported growth for this compound is below 40%, equality not counting. compound: CC(=O)N1N=C(c2cccc(Nc3ccncc3)c2)CC1c1ccc2c(c1)OCO2 (stereo not drawn)
Response line: Satisfied

Prompt line: Lab note: confirm whether the reported growth for this compound is below 40%, equality not counting. compound: CC(=O)NCCCS(=O)(=O)O
Response line: Not satisfied

Prompt line: Lab note: confirm whether the reported growth for this compound is below 40%, equality not counting. compound: COc1ccc(Cn2nc3c(c2-c2cc(OC)c(OC)c(OC)c2)-c2oncc2CC3)cc1
Response line: Satisfied

Prompt line: Lab note: confirm whether the reported growth for this compound is below 40%, equality not counting. compound: NC(=S)N/N=C(/c1ccccc1)c1ccccc1N
Response line: Not satisfied

Prompt line: Lab note: confirm whether the reported growth for this compound is below 40%, equality not counting. compound: CCN(CC)CCCC(C)Nc1c2c(nc3ccc(OC)cc13)CCCC2 (stereo not drawn)
Response line: Not satisfied

Prompt line: Lab note: confirm whether the reported growth for this compound is below 40%, equality not counting. compound: O=C(Nc1cccc(C2=NCCN2)c1)c1ccc(OCCCOc2ccc(C(=O)Nc3cccc(C4=NCCN4)c3)cc2)cc1
Response line: Satisfied

Prompt line: Lab note: confirm whether the reported growth for this compound is below 40%, equality not counting. compound: COc1cc(NCCCN(CC(C)C)CC(C)C)c2ncccc2c1
Response line: Not satisfied

Prompt line: Lab note: confirm whether the reported growth for this compound is below 40%, equality not counting. compound: Cc1nn(-c2ccccc2)c(N2CCOCC2)c1/C=N/N=c1\sc2ccccc2n1C
Response line: Not satisfied

Prompt line: Lab note: confirm whether the reported growth for this compound is below 40%, equality not counting. compound: O=S(=O)(NCCCNc1nccc(-c2c(-c3cccc(O)c3)nc3occn23)n1)c1ccc(F)cc1
Response line: Satisfied

Prompt line: Lab note: confirm whether the reported growth for this compound is below 40%, equality not counting. compound: Cc1ccccc1-c1cc(Cc2ccc(F)cc2)c(=O)[nH]n1
Response line: Not satisfied

Prompt line: Lab note: confirm whether the reported growth for this compound is below 40%, equality not counting. compound: O=C1OC(=O)C2C1CC=CC2c1ccccc1 (stereo not drawn)
Response line: Not satisfied

Prompt line: Lab note: confirm whether the reported growth for this compound is below 40%, equality not counting. compound: COc1ccc(CNC(=O)COc2ccc(/C=N/Nc3nc4ccccc4s3)cc2)cc1
Response line: Satisfied
